target entity: Neu5Ac(a2-6)Gal(b1-4)GlcNAc
test protocol: glycan array binding signal (z-score within array); higher = stronger binding
cond: glycan notation: IUPAC condensed, linker removed
The sample as a whole holds a higher share of the strongest signals than the screen did.
measured property: glycan array binding signal (z-score)

As a guide, the following entries are already answered.
- LysMD3 (Homo sapiens), Q7Z3D4 (protein) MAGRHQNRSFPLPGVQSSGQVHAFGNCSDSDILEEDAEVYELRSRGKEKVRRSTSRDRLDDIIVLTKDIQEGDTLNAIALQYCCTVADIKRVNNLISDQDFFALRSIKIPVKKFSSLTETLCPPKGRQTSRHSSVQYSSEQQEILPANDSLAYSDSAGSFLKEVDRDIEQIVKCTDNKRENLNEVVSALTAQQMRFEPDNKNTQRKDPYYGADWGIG: -0.353
- Arath Fbox LD (Arabidopsis thaliana) (protein) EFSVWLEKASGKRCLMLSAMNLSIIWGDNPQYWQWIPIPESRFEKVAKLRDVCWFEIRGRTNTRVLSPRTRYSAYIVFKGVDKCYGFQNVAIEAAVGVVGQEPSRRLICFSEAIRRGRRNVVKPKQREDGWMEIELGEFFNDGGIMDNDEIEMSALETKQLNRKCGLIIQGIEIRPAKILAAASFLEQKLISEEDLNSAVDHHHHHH: -0.052
- Onconase (Rana pipiens), P22069 (protein) QDWLTFQKKHITNTRDVDCDNIMSTNLFHCKDKNTFIYSRPEPVKAICKGIIASKNVLTTSEFYLSDCNVTSRPCKYKLKKSTNKFCVTCENQAPVHFVGVGSC: 0.51
- Agalectin (Anopheles gambiae) (protein) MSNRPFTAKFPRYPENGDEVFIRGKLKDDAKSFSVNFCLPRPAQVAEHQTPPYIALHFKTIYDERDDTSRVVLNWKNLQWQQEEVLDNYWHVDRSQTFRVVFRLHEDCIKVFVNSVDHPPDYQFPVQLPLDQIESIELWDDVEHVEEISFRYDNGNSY: 0.241
- Nictaba (Nicotiana tabacum), Q94EW1 (protein) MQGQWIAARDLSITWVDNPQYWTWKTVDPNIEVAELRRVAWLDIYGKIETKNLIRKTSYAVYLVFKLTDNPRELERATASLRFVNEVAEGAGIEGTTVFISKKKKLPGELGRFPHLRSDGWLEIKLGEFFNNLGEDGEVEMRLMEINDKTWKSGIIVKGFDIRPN: -0.276

[Q] Return value of glycan array binding signal (z-score) for input LFA (Limax flavus) (protein) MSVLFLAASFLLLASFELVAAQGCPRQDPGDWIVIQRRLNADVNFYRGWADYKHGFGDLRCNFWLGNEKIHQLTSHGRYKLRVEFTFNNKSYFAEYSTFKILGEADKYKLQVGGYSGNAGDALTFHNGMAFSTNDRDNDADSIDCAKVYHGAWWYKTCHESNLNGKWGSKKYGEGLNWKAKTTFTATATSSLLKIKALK , no commentary.
[A] -0.176

[Q] Give glycan array binding signal (z-score) for Pp2-A2 (Arabidopsis thaliana), Q07098 (protein) MPSNGDLDRQIEQLMECKPLSEADVRTLCDQARAILVEEYNVQPVKCPVTVCGDIHGQFYDLIELFRIGGNAPDTNYLFMGDYVDRGYYSVETVSLLVALKVRYRDRLTILRGNHESRQITQVYGFYDECLRKYGNANVWKYFTDLFDYLPLTALIESQVFCLHGGLSPSLDTLDNIRSLDRIQEVPHEGPMCDLLWSDPDDRCGWGISPRGAGYTFGQDIAAQFNHNNGLSLISRAHQLVMEGFNWCQDKNVVTVFSAPNYCYRCGNMAAILEIGENMEQNFLQFDPAPRQVEPDTTRKTPDYFL
[A] -0.266

Values from the supplement of paper PMC8728848
